target: B1R receptor of the rat (Rattus norvegicus, UniProt P97583); construct: host or cells: CHO K1 cells (Chinese hamster ovary), stably transfected; test: Functional study on the bradykinin receptor 1 (B1R), FLIPR Ca2+ assay, rB1R cells; assay type: cell-based; settings: CHO-K1, test substance 10 μM, agonist Des-Arg9-bradykinin 100 nM, % inhibition compared with the maximum achievable inhibition, read-out: B1R Antagonism, rat [10 μM] % Inhibition
Sequence (P97583 whole entry): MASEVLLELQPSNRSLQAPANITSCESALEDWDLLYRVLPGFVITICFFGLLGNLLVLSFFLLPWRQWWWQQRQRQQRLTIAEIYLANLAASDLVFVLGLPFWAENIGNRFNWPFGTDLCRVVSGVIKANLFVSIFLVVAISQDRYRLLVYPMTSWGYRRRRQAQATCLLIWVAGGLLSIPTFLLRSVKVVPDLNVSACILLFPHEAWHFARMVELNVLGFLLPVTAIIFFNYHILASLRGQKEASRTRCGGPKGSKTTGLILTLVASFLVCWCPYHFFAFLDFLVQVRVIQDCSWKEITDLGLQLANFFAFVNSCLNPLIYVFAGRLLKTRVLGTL
quantity.kind: inhibition at 10 µM (%)
State the answer as a number, implicitly in %.

Answered examples (4):
Query block: Consider the compound shown here: Cc1cc(S(=O)(=O)N2CCCCC2COCC(=O)N2CCN(Cc3ccccc3)CC2)c(C)cc1Cl (centres unmarked) [Example 568] What is its recorded inhibition at 10 µM?
Result block: 81.3

Query block: Request the reported inhibition at 10 µM associated with O=C(COCC1CCCCN1S(=O)(=O)c1cccc2ccccc12)N1CCC(N2CCCC2)CC1 (centres unmarked) [Example 23]
Result block: 85.3

Query block: Look up inhibition at 10 µM: COc1cc(C)c(S(=O)(=O)N2CCCCC2COCC(=O)N(C)CCN2CCCCC2)c(C)c1 (centres unmarked) [Example 532]
Result block: 108

Query block: Please report the recorded inhibition at 10 µM for COc1cc(C)c(S(=O)(=O)N2CCCCC2COCC(=O)N2CCN(c3nc4ccccc4s3)CC2)c(C)c1 (centres unmarked) [Example 526] .
Result block: 102

Continuing:
Query block: Query: inhibition at 10 µM; subject: Cc1cc(C)c(S(=O)(=O)N2CCCCC2COCC(=O)Nc2ccc(-n3ccnc3C)cc2)c(C)c1 (centres unmarked) [Example 87]
Result block: 44.4

* * *

biological target: B1R receptor of the rat (Rattus norvegicus, UniProt P97583); construct: host or cells: CHO K1 cells (Chinese hamster ovary), stably transfected; assay: Functional study on the bradykinin receptor 1 (B1R), FLIPR Ca2+ assay, rB1R cells; type: cell-based; conditions: CHO-K1, test substance 10 μM, agonist Des-Arg9-bradykinin 100 nM, % inhibition compared with the maximum achievable inhibition, read-out: B1R Antagonism, rat [10 μM] % Inhibition
Where a name gives a salt, the structure may show the parent alone.
quantity.kind: inhibition at 10 µM

Answered cases to consult:
Query block: inhibition at 10 µM lookup needed for COc1cc(C)c(S(=O)(=O)N2CCC[C@@H]2COCC(=O)N2CCN(C3CCN(C)CC3)CC2)c(C)c1C [Example 140, dihydrochloride] , thanks.
Result block: 80.7%

Query block: Any idea what its inhibition at 10 µM is? The compound is Cc1cc(C)c(S(=O)(=O)N2CCCCC2COCC(=O)N2CCN(CC3CCN(C)CC3)CC2)c(C)c1 (stereo not drawn) [Example 232]
Result block: 90%

Query block: Any idea what inhibition at 10 µM was measured for COc1cc(C)c(S(=O)(=O)N2CCCCC2COCC(=O)NCc2ccc(N(C)C)cc2)c(C)c1 (stereo not drawn) [Example 577] ?
Result block: 107%

Next:
Query block: inhibition at 10 µM lookup needed for COc1cc(C)c(S(=O)(=O)N2CCCCC2COCC(=O)NCCCN2CCCCC2)c(C)c1 (stereo not drawn) [Example 413] , thanks.
Result block: 103%

Query block: Give its inhibition at 10 µM value. Item: Cc1cc(C)c(S(=O)(=O)N2Cc3ccccc3CC2COCC(=O)N2CCN(C3CCN(C)CC3)CC2)c(C)c1 (stereo not drawn) [Example 5]
Result block: 103%

Query block: Which inhibition at 10 µM reading was recorded for the compound COc1cc(C)c(S(=O)(=O)N2Cc3ccccc3CC2COCC(=O)N2CCC(CCN3CCCCC3)CC2)c(C)c1C (stereo not drawn) [Example 276] ?
Result block: 94.2%

Query block: Find the recorded inhibition at 10 µM belonging to COc1ccc(N2CCN(C(=O)COCC3CCCN3S(=O)(=O)c3c(C)cc(OC)cc3C)CC2)cc1 (stereo not drawn) [Example 308] and report it.
Result block: 101%

Query block: Would you kindly share the measured inhibition at 10 µM for Cc1cc(C)c(S(=O)(=O)N2CCCCC2COCC(=O)N2CCN(c3nc(Cc4ccccc4)cs3)CC2)c(C)c1 (stereo not drawn) [Example 234] ?
Result block: 103%

Query block: What value of inhibition at 10 µM has been recorded for this entry: COc1cc(C)c(S(=O)(=O)N2CCCCC2COCC(=O)N2CCN(C)CC2)c(C)c1 (stereo not drawn) [Example 242]
Result block: 88%

Query block: Given COc1cc(C)c(S(=O)(=O)N2CCCCC2COCC(=O)N(C)CCC2CCC(N3CCCC3)CC2)c(C)c1 (stereo not drawn) [Example 194] , state its recorded inhibition at 10 µM.
Result block: 100%

Query block: Entry Cc1c(S(=O)(=O)N2CCCCC2COCC(=O)N2CCN(C3CCN(C)CC3)CC2)sc2ccc(Cl)cc12 (stereo not drawn) [Example 151, dihydrochloride] has what inhibition at 10 µM?
Result block: 103%

Query block: Value lookup for inhibition at 10 µM; key = COc1cc(C)c(S(=O)(=O)N2CCCC2COCC(=O)N2CCCC2Cc2cccc(C)n2)c(C)c1 (stereo not drawn) [Example 448]
Result block: 99.8%
